Compiled notes: published log10 of IC50 values involving cGMP-dependent protein kinase (Eimeria tenella, UniProt Q8MMZ8).
In plain terms, each number is the log10 of measured IC50 in nM.

Guide cases for log10 of IC50, answers given:
[[record]]
compound = "Cc1cc(-c2cc(C3CCN(C)CC3)[nH]c2-c2ccc(F)cc2)ccn1"
measurement_kind = "log10 of IC50"
experimental_result = 0.45

[[record]]
compound = "CN1CCC(c2cc(-c3ccccn3)c(-c3ccc(F)cc3)[nH]2)CC1"
measurement_kind = "log10 of IC50"
experimental_result = 1.37

[[record]]
compound = "CN(C)Cc1ccn2c(-c3ccnc(OCc4ccccc4)n3)c(-c3ccc(F)cc3)nc2c1"
measurement_kind = "log10 of IC50"
experimental_result = -0.57

[[record]]
compound = "CN(C)CCCc1ccn2c(-c3ccnc(N)n3)c(-c3ccc(F)cc3)nc2c1"
measurement_kind = "log10 of IC50"
experimental_result = -0.57


Turning now to a further compound:
INPUT: Form: Entry = CN(C)C(=O)Cc1cc(-c2ccncc2)c(-c2ccc(F)cc2)[nH]1 | System = cGMP-dependent protein kinase (Eimeria tenella, UniProt Q8MMZ8) | log10 of IC50 = ____
OUTPUT: 0.61
